Listed below: pIC50 values for each entry.
Target: human TLR8 (Homo sapiens)
Sequence (Q9NR97 27-1041): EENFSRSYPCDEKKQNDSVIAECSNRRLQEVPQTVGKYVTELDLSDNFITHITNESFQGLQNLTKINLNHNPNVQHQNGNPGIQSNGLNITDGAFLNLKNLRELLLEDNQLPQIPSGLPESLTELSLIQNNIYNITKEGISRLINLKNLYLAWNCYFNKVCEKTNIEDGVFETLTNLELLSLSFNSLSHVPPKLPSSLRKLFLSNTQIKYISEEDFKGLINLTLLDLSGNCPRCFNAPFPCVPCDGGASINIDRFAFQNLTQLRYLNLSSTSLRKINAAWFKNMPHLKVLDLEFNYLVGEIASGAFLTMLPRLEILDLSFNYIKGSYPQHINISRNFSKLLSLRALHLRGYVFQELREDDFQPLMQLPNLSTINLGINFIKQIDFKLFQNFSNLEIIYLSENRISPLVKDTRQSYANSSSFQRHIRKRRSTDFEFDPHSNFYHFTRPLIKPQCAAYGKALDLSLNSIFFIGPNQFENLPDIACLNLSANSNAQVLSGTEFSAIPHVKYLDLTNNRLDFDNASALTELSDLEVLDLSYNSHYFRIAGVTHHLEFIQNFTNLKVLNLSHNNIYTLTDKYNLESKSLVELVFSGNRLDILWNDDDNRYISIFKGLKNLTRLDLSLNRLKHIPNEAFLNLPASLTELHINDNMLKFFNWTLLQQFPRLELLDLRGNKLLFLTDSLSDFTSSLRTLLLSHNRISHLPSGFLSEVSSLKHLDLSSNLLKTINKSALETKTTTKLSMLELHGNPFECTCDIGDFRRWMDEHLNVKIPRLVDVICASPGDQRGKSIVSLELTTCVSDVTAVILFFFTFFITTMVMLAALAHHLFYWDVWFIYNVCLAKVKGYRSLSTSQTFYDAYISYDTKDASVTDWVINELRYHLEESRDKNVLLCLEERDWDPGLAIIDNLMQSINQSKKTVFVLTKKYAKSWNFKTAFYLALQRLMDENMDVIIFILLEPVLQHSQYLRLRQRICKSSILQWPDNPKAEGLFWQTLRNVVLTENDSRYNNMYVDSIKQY
Experiment: HEK293-Blue-hTLR-8 cells assay (SEAP reporter, R848 stimulation)
Format: cell-based
Settings: HEK293-Blue-hTLR8 cells, R848 ligand, 20 hrs incubation
Lab note — pIC50 values are minus log10 of concentrations in M.

Below are worked cases with known answers.
C[C@@H]1CN(c2ccc(C#N)n3nccc23)C[C@H](CN2CCC3(CCCNC3)CC2)O1 [Example 27] : 6.72
C[C@@H]1CN(c2ccc(C#N)n3ncc(F)c23)C[C@H](CN2CCCC3(CCNCC3)C2)O1 [Example 67] : 7.42
C[C@@H]1CN(c2ccc(C#N)n3nccc23)C[C@H](CN2CC[C@@H]3CNCC32)O1 (some centres unmarked) [Example 62] : 6.59
C[C@@H]1CN(c2ccc(C#N)n3nccc23)C[C@H](CN2CCC3(CCNC3)C2=O)O1 (some centres unmarked) [Example 21] : 7.41
C[C@@H]1CN(c2ccc(C#N)n3nccc23)C[C@H](CN2CCC3(CN(C)CCO3)C2)O1 (some centres unmarked) [Example 76] : 6.47
CC1CN(C[C@H]2CN(c3ccc(C#N)n4nccc34)C[C@@H](C)O2)CCN1 (some centres unmarked) [Example 28] : 7.19
C[C@@H]1CN(c2ccc(C#N)n3nccc23)C[C@H](CN2CC3(CCNCC3)C2)O1 [Example 24] : 6.21

Next:
Please give the measured pIC50 for this compound: C[C@@H]1CN(c2ccc(C#N)n3nccc23)C[C@H](CN2CCC(N)(c3ccccc3)CC2)O1 [Example 73]
7.33
